Target: IL-13 (Homo sapiens (Human), UniProt P35225 35-146, limits assumed)
Sequence (P35225 35-146 limits assumed): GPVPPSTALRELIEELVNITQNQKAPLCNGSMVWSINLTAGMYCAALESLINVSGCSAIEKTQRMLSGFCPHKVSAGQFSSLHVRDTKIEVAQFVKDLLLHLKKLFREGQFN
Assay: Biacore
Decision: koff beneath 0.0002 s⁻¹ gives yes (1); koff meeting or exceeding 0.0002 s⁻¹ gives no (0).

Example entries begin here.
Prompt: Consider M456 (antibody, V domains shown, anti-IL-13, human IgG1) VH: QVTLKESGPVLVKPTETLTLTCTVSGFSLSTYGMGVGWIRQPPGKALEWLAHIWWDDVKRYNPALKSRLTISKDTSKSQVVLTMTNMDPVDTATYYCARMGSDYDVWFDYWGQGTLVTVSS VL: EIVLTQSPATLSLSPGERATLSCRASKSISKYLAWYQQKPGQAPRLLIYSGSTLQSGIPARFSGSGSGTDFTLTISSLEPEDFAVYYCQQHSYGPYTFGQGTKLEIK . Does its koff lie strictly below 0.0002 s⁻¹?
Response: yes (1)

Prompt: Consider M474 (antibody, V domains shown, anti-IL-13, human IgG1) VH: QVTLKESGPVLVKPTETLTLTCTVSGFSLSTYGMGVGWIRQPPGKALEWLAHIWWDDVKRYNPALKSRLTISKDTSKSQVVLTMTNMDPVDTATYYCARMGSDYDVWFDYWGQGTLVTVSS VL: EIVLTQSPATLSLSPGERATLSCRASKSISKYLAWYQQKPGQAPRLLIYSGSTLQSGIPARFSGSGSGTDFTLTISSLEPEDFAVYYCQQHDLGPYTFGQGTKLEIK . Does its koff lie strictly below 0.0002 s⁻¹?
Response: no (0)

Prompt: Consider M455 (antibody, V domains shown, anti-IL-13, human IgG1) VH: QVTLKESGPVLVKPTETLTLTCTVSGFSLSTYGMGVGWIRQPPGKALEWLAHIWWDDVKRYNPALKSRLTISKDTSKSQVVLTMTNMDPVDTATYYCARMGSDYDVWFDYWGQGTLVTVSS VL: EIVLTQSPATLSLSPGERATLSCRASKSISKYLAWYQQKPGQAPRLLIYSGSTLQSGIPARFSGSGSGTDFTLTISSLEPEDFAVYYCQQHNEAPYTFGQGTKLEIK . Does its koff lie strictly below 0.0002 s⁻¹?
Response: no (0)

Others:
Prompt: Consider M446 (antibody, V domains shown, anti-IL-13, human IgG1) VH: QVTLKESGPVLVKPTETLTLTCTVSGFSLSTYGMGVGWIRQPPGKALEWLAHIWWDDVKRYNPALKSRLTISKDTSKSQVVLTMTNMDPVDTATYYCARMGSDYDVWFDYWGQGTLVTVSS VL: EIVLTQSPATLSLSPGERATLSCRASKSISKYLAWYQQKPGQAPRLLIYSGSTLQSGIPARFSGSGSGTDFTLTISSLEPEDFAVYYCQQHVGGPYTFGQGTKLEIK . Does its koff lie strictly below 0.0002 s⁻¹?
Response: no (0)

Prompt: Consider M466 (antibody, V domains shown, anti-IL-13, human IgG1) VH: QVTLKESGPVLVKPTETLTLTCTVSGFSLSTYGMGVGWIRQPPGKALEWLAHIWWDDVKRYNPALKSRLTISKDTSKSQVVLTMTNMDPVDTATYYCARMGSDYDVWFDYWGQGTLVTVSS VL: EIVLTQSPATLSLSPGERATLSCRASKSISKYLAWYQQKPGQAPRLLIYSGSTLQSGIPARFSGSGSGTDFTLTISSLEPEDFAVYYCQQHDWSPYTFGQGTKLEIK . Does its koff lie strictly below 0.0002 s⁻¹?
Response: no (0)
